Test system: MCF7 breast
Assay: NCI-60 one-dose screen, 48 h (100 = growth as untreated, 0 = no growth, -100 = all killed)
Settings: 10 µM unless noted
The panel holds about 83,000 compounds, 20% with a hit somewhere; the sample as a whole holds those more often.
MEASURED_QUANTITY: growth (%)
Respond numerically; units are % and should not be typed.

INSERT INTO assay_data (molecule, endpoint_unit, val) VALUES
  ('CC(=O)Nc1ccc(C(=O)Nc2cc(-c3ccccc3)ccc2N)cc1', '%', 55.6);

Input: Look up growth: NNC(=O)/C(=C\c1ccc([N+](=O)[O-])cc1)CC(=O)c1ccc(Cl)c(Cl)c1
Output: 73.8

Input: For the molecule shown here, Clc1nc(Cl)c2ncn(CCOCCn3cnc4c(Cl)nc(Cl)nc43)c2n1 , give the reported growth.
Output: -48.9

Input: # input molecule: CCCOc1nc(SCCC)nc2c1cnn2-c1ccccc1 ; wanted: its growth
Output: 101

====

Test system: HOP-62 NSCLC
Test: NCI-60 one-dose screen, 48 h (100 = growth as untreated, 0 = no growth, -100 = all killed)
Conditions: 10 µM unless noted
Experimental: Growth inhibition of the HOP-62 human Non-Small Cell Lung tumor cell line is measured as a screen for anti-cancer activity. Cells are grown in 96 well plates and exposed to the test compound for 48 hours. Compounds are tested at a single concentration, which is 10^-5 M for most compounds. The reported endpoint is percent growth (GI% or GIPRCNT), where numbers from 0 - 100% represent growth inhibition, and numbers from -100% - 0 represent cell death. […]
The panel holds about 83,000 compounds, 20% with a hit somewhere; the sample as a whole holds those more often.
MEASURED_QUANTITY: growth (%)
Please respond with the number in % and leave the unit unwritten.

Answered cases to consult:
INSERT INTO results (molecule, measured_quantity, val) VALUES
  ('COc1ccc(C(=O)c2cc3c(N)c(C(=O)Nc4ccc(Cl)cc4)sc3nc2C)cc1', 'growth', 37.5),
  ('COc1ccc(C(O)c2cc3c(N)c(C(=O)Nc4ccccc4)sc3nc2C)cc1 (configuration not stated)', 'growth', 18.8),
  ('Cn1/c(=N/NC(N)=S)ccc2ccccc21', 'growth', 98.6),
  ('CC(=O)NCCCS(=O)(=O)O', 'growth', 105),
  ('COc1cccc(CNCCN2C(=O)c3ccc4c5c(ccc(c35)C2=O)C(=O)N(CCNCc2cccc(OC)c2)C4=O)c1', 'growth', 105),
  ('CC(C)(O)C1CCCN1C(=O)c1ccccc1I (configuration not stated)', 'growth', 95.4),
  ('c1ccc(C2CC(c3cccc(Nc4ccncc4)c3)=NN2c2ccccc2)cc1 (configuration not stated)', 'growth', 71.1),
  ('CN(C)Cc1c(-c2ccccc2)[nH]c2ccccc12', 'growth', 80.3);

Input: Would you kindly share the measured growth for c1ccc(-c2nn(-c3ccccc3)[n+](-c3cccc4ccccc34)n2)cc1 ?
Output: 41.7

Input: What value of growth has been recorded for this entry: COc1cc(NCCCN(CC(C)C)CC(C)C)c2ncccc2c1
Output: 87.6

Input: Fill in: growth of CCCCCCN(C)Cc1ccc(OCCOc2ccc(CN(C)CCCCCC)cc2)cc1 is ___
Output: 17.9

Input: # get_value(readout='growth', item= O=C1CCCN1c1cccc2cccnc12 )
Output: 94.4

Input: Param item = CCNC(=O)c1[nH]cc(-c2ccc(OC)cc2)c1-c1cc(OC)c(OC)c(OC)c1 ; retrieve measured growth.
Output: 45

Input: What value of measured growth is listed for COc1ccc(-c2cnc(N)nc2-c2ccc(OC)cc2O)cc1 ?
Output: 110

Input: Fill in: growth of Cn1c(=O)c2[nH]c(CCCc3nc4c([nH]3)c(=O)n(C)c(=O)n4C)nc2n(C)c1=O is ___
Output: 97.4

Input: For the molecule CC(C)Cc1ccc(C(C)C(=O)NCc2c[nH]c3ccc(Cl)cc23)cc1 (configuration not stated) , what growth is on record?
Output: 99.7

Input: Report growth for N/C(=N\N=C\c1cc2ccccc2s1)N/N=C/c1cc2ccccc2s1 please.
Output: 110

Input: Return reported growth; argument: Nc1nc(SN=Nc2ccc(S(N)(=O)=O)cc2)c2[nH]cnc2n1
Output: 19.8

Input: Consider the molecule shown here: CS(=O)(=O)Nc1cc(-c2ccc3ncnc(Nc4ccc5[nH]ncc5c4)c3c2)cnc1Cl What is its recorded growth?
Output: 55.2

Data credit: PubChem BioAssay (NCI)
